Hello, the source for this data is paper PMC5540273, in case you need it.

test system: PIK3CA; settings: concentration: 1 μM, replicates: in singlicate; n = 1;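 note: KINOMEscan kinase panel screen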
Answer each item with its documented %Inh.

Some entries whose results are on file:
compound: Cn1ccc2ncnc(Nc3ccc(Oc4cccc(Cl)c4)c(Cl)c3)c21
result-type: %Inh
value-measured: 10%

compound: Clc1ccc(-c2cc(-c3c[nH]nc3-c3ccccn3)ccn2)cc1 [GW681251]
result-type: %Inh
value-measured: 0%

compound: COc1cc2ncnc(Nc3ccc(OCc4ccccc4Br)c(Cl)c3)c2cc1OC.Cl [GI261590]
result-type: %Inh
value-measured: 0%

compound: Cc1cccc(-c2nc(Nc3ccc4[nH]nnc4c3)c3ccccc3n2)n1 [GW867587]
result-type: %Inh
value-measured: 0%

compound: COc1cc2c(Nc3cccc(NC(=O)c4ccccc4)c3)ncnc2cc1OCCCN1CCOCC1 [GSK223810]
result-type: %Inh
value-measured: 0%

compound: CCCc1ccc(S(=O)(=O)NC2CCN(c3ccnc(Nc4ccc(OC)cc4)n3)C2)cc1 (stereo not drawn) [GSK1379737]
result-type: %Inh
value-measured: 0%

Working through the 2 compounds below one at a time, give %Inh for each.
1. CNc1nccc(-c2c(-c3ccc(F)cc3)ncn2CCCN2CCOCC2)n1 [SB-222516]
2. CS(=O)(=O)CCNCc1ccc(-c2ccc3ncnc(Nc4ccc(OCc5ccccc5)c(Cl)c4)c3c2)o1.Cl [GW574783]

0%
0%

Would you kindly share the measured %Inh for Cn1ccc2ncnc(Oc3ccc(NC(=O)Nc4cccnc4)c(Cl)c3)c21 ?
4%
